Taken from patent US3945993A.

Test: Water solubility of acid salts of the esters by the dry weight method
Assay type: physicochemical
Conditions: water, acid addition salts (hydrochlorides)
Structures can show the parent of a compound that is named as a salt.
QUANTITY MEASURED: solubility

Guide cases for solubility, answers given:
Q) Request the reported solubility associated with CCOC(=O)[C@H]1[C@@H]2C[C@@H](O[C@@H]3O[C@H](C)[C@@H](O)[C@H](N)[C@@H]3O)/C=C/C=C/C=C/C=C/C=C/C=C/C=C/[C@H](C)[C@@H](O)[C@@H](C)[C@H](C)OC(=O)C[C@H](O)C[C@H](O)CC[C@@H](O)[C@H](O)C[C@H](O)C[C@](O)(C[C@@H]1O)O2 [Amphotericin B ethyl ester hydrochloride, amphotericin B ethyl ester hydrochloride]
A) > 75 mg/mL

Q) Continue with COC(=O)[C@H]1[C@@H]2C[C@@H](O[C@@H]3O[C@H](C)[C@@H](O)[C@H](N)[C@@H]3O)/C=C/C=C/C=C/C=C/C=C/C=C/C=C/[C@H](C)[C@@H](O)[C@@H](C)[C@H](C)OC(=O)C[C@H](O)C[C@H](O)CC[C@@H](O)[C@H](O)C[C@H](O)C[C@](O)(C[C@@H]1O)O2 [hydrochloride]
A) > 75 mg/mL

Lab note: next compound to report on.
Q) Request the reported solubility associated with COC(=O)C1C(O)CC2(O)CC(O)CC3OC3/C=C/C(=O)OC(C)C/C=C/C=C/C=C/C=C/C(OC3OC(C)C(O)C(N)C3O)CC1O2 (stereo not drawn) [Pimaricin methyl ester hydrochloride]
A) > 80 mg/mL
